A collection of compounds and their measured pIC50
Target: human Nav1.7 channels stably expressed in HEK 293 cells (Homo sapiens, UniProt Q15858)
Construct: expressed in transfected cells
Sequence (Q15858 whole entry): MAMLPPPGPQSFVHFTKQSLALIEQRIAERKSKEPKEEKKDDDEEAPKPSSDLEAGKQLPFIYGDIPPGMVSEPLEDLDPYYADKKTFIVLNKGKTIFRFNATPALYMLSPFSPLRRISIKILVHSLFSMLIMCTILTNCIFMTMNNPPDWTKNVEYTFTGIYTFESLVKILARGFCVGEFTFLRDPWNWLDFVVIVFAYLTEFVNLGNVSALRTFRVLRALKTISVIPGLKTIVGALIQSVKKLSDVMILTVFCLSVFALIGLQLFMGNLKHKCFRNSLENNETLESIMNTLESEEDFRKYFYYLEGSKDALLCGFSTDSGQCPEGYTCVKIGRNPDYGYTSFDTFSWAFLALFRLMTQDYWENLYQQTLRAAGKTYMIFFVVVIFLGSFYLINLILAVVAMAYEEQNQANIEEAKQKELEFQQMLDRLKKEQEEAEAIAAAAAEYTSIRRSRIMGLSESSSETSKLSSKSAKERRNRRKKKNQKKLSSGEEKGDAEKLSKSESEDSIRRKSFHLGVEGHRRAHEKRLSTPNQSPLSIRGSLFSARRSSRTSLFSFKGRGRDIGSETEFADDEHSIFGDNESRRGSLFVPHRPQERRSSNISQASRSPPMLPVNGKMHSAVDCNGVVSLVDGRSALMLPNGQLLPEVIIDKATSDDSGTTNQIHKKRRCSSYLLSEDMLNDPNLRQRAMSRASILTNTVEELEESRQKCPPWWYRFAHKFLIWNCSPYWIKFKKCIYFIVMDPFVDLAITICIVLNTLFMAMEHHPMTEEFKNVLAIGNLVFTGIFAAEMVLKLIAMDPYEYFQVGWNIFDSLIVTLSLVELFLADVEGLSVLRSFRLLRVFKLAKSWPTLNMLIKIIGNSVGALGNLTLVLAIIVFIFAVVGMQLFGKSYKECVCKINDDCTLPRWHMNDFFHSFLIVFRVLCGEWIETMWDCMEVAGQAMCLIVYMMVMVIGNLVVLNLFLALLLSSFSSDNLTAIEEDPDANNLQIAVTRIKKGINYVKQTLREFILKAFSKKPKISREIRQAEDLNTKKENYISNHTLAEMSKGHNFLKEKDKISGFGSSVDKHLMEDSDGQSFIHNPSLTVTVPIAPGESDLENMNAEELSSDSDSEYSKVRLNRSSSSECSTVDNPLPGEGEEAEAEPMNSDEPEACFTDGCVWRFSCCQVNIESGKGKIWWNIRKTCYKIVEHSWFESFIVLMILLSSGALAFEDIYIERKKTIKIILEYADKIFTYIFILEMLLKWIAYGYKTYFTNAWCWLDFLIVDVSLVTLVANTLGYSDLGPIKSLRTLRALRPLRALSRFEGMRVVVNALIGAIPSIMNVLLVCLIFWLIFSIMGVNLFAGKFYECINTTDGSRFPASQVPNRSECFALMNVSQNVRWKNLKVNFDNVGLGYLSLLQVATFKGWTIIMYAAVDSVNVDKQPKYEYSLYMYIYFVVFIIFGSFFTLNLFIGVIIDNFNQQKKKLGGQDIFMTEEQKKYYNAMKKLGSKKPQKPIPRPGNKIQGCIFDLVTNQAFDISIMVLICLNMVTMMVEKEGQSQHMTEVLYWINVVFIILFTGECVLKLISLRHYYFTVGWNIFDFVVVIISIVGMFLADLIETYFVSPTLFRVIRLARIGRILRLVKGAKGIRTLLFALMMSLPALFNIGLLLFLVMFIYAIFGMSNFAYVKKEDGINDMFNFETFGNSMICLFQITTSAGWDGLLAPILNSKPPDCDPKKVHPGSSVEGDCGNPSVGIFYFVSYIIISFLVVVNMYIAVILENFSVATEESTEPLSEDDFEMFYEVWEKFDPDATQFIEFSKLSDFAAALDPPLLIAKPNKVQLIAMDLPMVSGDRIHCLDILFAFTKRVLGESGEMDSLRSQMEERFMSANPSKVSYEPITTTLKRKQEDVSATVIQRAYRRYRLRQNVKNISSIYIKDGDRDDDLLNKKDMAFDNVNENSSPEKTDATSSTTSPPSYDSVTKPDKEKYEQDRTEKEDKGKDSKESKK
Test: PatchXpress 7000 automated patch-clamp, sodium current
Assay type: cell-based
Settings: potency for the Nav 1.7 sodium ion channel (as measured by PatchXpress), 22° C.
pIC50: −log10 of the molar value.

# Compound, pIC50
data = [
    ("C[C@H](c1ccccc1C1=CCNCC1)n1c(=O)oc2cc(S(=O)(=O)Nc3ncns3)c(Cl)cc21.Cl [Compound 34-6, hydrochloride]", 7.60),
    ("C[C@H](c1ccccc1C1=CCNCC1)n1c(=O)oc2cc(S(=O)(=O)Nc3ncns3)c(F)cc21", 7.55),
]

The reported numbers originate from patent US9273040B2.
